Entry source: patent US10688111B2

assay: Glibenclamide solubility in infusion fluids by HPLC, excess drug shaken 24 hours (Table 4); format: physicochemical; details: saline or isotonic, thermodynamic from solid; NaCl at pH 4.5 + PEG/EtOH, no buffer (50-fold dilution); actual pH 7.64; 24 hours ambient

Compound: COc1ccc(Cl)cc1C(=O)NCCc1ccc(S(=O)(=O)NC(=O)NC2CCCCC2)cc1 [Glibenclamide]
Unit string: µg/mL
solubility at 24 h: 100

###

assay: physchem; settings: pH 10.5, aqueous with cosolvent or surfactant or cyclodextrin, Solubility
Property measured: solubility (mg/mL)

Compound: COc1ccc(Cl)cc1C(=O)NCCc1ccc(S(=O)(=O)NC(=O)NC2CCCCC2)cc1 [Glibenclamide]
Reported result: 13.4
